Values compiled from paper PMC10397247.

# testedSystem: T1, 4H2699-AA
# T1 chain: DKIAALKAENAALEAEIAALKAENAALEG
# runDescription: two-hybrid library CCmax;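 further: natural log of median RNA to DNA barcode read ratio; higher means stronger binding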
# testParameters: mean of both orientations
propertyMeasured: interaction score

DENAALEAEIAALEAKIAALEAKNAALKG [4H1064-AA]: -1.48

P. DENAALEAKNAALEAKIAALKAKIAALKG [4H1454-AA]
Q. DENAALEAKIAALKAEIAALEAKIAALEG [4H1349-AA]
R. DENAALEAKIAALKAEIAALKAKNAALKG [4H1360-AA]
(Q) Arrange these 3 binders in increasing order of interaction score. Please write the labels in the order that was asked for.
(A) Q, P, R
